Measured Kd, listed per entry for reference.
Target: T1, Recombinant human Notch4 (human, UniProt Q99466 24-1447, limits assumed)
T1 construct: also called Notch4 analyte; Notch4 (antigen)
T1 sequence: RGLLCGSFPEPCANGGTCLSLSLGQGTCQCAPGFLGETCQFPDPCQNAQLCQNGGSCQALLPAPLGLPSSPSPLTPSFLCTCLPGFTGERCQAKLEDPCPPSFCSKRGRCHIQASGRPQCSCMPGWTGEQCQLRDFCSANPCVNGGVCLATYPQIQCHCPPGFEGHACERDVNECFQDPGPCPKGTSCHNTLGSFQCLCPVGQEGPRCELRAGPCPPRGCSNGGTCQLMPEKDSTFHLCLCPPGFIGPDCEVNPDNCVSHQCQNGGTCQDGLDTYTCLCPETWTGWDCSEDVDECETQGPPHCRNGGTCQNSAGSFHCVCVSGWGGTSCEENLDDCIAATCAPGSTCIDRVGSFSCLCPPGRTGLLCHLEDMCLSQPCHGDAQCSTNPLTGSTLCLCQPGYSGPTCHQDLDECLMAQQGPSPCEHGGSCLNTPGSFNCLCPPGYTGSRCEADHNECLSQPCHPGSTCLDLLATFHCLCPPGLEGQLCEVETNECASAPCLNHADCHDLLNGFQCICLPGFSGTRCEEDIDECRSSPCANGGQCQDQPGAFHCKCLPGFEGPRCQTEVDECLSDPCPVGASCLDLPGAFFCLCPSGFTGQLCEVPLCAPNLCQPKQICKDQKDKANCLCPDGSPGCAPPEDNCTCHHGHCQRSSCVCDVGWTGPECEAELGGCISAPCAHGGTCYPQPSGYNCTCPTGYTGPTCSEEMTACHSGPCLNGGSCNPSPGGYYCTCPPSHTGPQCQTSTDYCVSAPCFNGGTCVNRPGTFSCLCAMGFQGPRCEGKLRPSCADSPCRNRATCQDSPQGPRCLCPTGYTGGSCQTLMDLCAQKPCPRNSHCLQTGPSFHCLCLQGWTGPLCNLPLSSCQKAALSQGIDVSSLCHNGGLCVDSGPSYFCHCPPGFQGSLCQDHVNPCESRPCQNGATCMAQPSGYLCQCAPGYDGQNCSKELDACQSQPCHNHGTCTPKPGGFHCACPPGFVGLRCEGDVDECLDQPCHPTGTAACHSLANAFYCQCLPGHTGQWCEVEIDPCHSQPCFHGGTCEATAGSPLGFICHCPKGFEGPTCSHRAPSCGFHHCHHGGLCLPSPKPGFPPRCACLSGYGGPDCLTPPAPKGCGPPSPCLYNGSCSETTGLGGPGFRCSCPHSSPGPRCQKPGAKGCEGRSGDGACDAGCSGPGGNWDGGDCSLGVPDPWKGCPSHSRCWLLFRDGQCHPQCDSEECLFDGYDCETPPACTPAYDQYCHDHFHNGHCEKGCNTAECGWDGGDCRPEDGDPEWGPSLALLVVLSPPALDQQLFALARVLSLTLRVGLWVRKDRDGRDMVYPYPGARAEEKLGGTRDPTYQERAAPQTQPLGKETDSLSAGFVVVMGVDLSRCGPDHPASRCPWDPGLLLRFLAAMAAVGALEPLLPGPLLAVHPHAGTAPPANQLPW
Experiment: SPR, antibody captured by anti-human IgG Fc on HC30M chip, Notch4 as analyte
The response must be a number in nM with no trailing unit.

Known Kd results, listed for orientation:
binder	Kd / nM
iggrefmat 2-16 (antibody, V domains shown, Tested as an antibody captured by anti-human IgG Fc; also called C07-Lib3-Pl1) VH: QVQLVESGGGLVQPGGSLRLSCAASGLTFSGSAMSWVRQAPGKGLELVASITGSGTRTYYPDSVKGRFTISRDNAKNSLYLQMNSLRAEDTAVYYCARGLHAFDIWGQGTMVTVSS VL: DIVMTQSPLSLPVTPGEPASISCRSSQSLLSSYGYHNLHWYLQKPGQSPQLLIYMGYNRASGVPDRFSGSGSGTDFTLKISRVEAEDVGVYYCMQGMHLPITFGGGTKVEIK	1.5
H07-Lib3-Pl1 (antibody, V domains shown, Tested as an antibody captured by anti-human Fc antibodies) VH: EVQLVESGGGLVQPGGSLRLSCAASGLPFSSYAMSWVRQAPGKGLELVASIGTAGDAYYPDSVKGRFTISRDNAKNSLYLQMNSLRAEDTAVYYCARVGPFWQGFAFDIWGQGTMVTVSS VL: DIVMTQSPLSLPVTPGEPASISCRSSQSLLHSSGHNYLHWYLQKPGQSPQLLIYMTYNRASGVPDRFSGSGSGTDFTLKISRVEAEDVGVYYCLQTTHWPHTFGGGTKVEIK	1.4
iggrefmat 1-29 (antibody, V domains shown, Tested as an antibody captured by anti-human IgG Fc; also called C01-Lib1-Pl1) VH: QVQLVQSGAEVKKPGASVKVSCKVSRGTFSTYAIHWVRQAPGKGLEWMGGINAATGYTIYAQKFQGRVTMTEDTSTDTAYMELSSLKSEDTAVYYCVRSVGSIEYWGQGTLVTVSS VL: DIQMTQSPSSVSASVGDRVTITCRASQGISNHLAWYQQKPGKAPKLLIYGASSRQSGVPSRFSGSGSGTDFTLTISSLQPEDFANYYCLHDRYPYTFGGGTKVEIK	6.1
iggrefmat 3-4 (antibody, V domains shown, Tested as an antibody captured by anti-human IgG Fc; also called D11-Lib4-Pl1) VH: EVQLVQSGAEVKKPGASVKVSCKASGYTFSDHYISWVRQAPGQGLEWMGWMNPTSGHTNYAQKLQGRGTMTTDPSTSTAYMELRSLRSDDTAVYYCARVSGRWLPAVDGHYYYYYGMDVWGQGTTVTVSS VL: ESALTQPASVSGSPGQSITISCTGTGSNIGAGYGVSWYQQHPGKAPKLMIYANINRPPGVSNRFSGSKSGNTASLTISGLQAEDEADYYCSSYTSSSWMFGGGTKLTVL	2.6
iggrefmat 3-11 (antibody, V domains shown, Tested as an antibody captured by anti-human IgG Fc; also called H03-Lib6-Pl2) VH: EVQLVQSGAEVKKPGASVKVSCKASGYTFATYPISWVRQAPGQGLEWMGGMNPTTGDTIYAQKLQGRGTMTTDPSTSTAYMELRSLRSDDTAVYYCARGDRAWFDPWGQGTLVTVSS VL: ESALTQPASVSGSPGQSITISCTGTGSNIGAGYGVSWYQQHPGKAPKLMIYANINRPPGVSNRFSGSKSGNTASLTISGLQAEDEADYYCSSYTSSSWMFGGGTKLTVL	0.92

Determine its reported Kd: G05-Lib3-Pl1 (antibody, V domains shown, Tested as an antibody captured by anti-human IgG Fc) VH: EVQLVESGGGLVQPGGSLRLSCAASGFTFSDYSMSWVRQAPGKGLELVASISESGHDTYYPDSVKGRFTISRDNAKNSLYLQMNSLRAEDTAVYYCARGIAVAGTRAFDIWGQGTMVTVSS VL: DIVMTQSPLSLPVTPGEPASISCRSSQSLLYSTGYNYLHWYLQKPGQSPQLLIYMGSYRASGVPDRFSGSGSGTDFTLKISRVEAEDVGVYYCMQALPTPPITFGGGTKVEIK 0.89

Determine its reported Kd: C03-Lib1-Pl1 (antibody, V domains shown, Tested as an antibody captured by anti-human IgG Fc) VH: QVQLVQSGAEVKKPGASVKVSCKVSGYTFTDLPIHWVRQAPGKGLEWMGGINPHSGDAIYAQKFQGRVTMTEDTSTDTAYMELSSLKSEDTAVYYCTTVIAVAGSNDSRPCGRSYLCVLDYWGQGTLVTVSS VL: DIQMTQSPSSVSASVGDRVTITCNASQGIGHSLAWYQQKPGKAPKLLIYGATSRATGVPSRFSGSGSGTDFTLTISSLQPEDFANYYCLQDYIYPFTFGGGTKVEIK 5.3

Determine its reported Kd: iggrefmat 6-16 (antibody, V domains shown, Tested as an antibody captured by anti-human IgG Fc) VH: EVQLVESGGGLVQPGRSLRLSCAASEFSFSRFDMHWVRQAPGKGLEWVSAISSSGSYKDYADSVEGRFTISRDNAKNSLYLQMNSLRAEDTAVYYCAREAYGDYGKPFDYWGQGTLVTVSS VL: DIQMTQSPSSLSASVGDRVTITCRASQSISRNLAWYQQKPGKAPKLLIYAGSTLQRGVPSRFSGSGSGTDFTLTISSLQPEDVATYYCLQANMYPLTFGGGTKV 0.38

Determine its reported Kd: iggrefmat 2-12 (antibody, V domains shown, Tested as an antibody captured by anti-human IgG Fc; also called E08-Lib3-Pl1) VH: EVQLVESGGGLVQPGGSLRLSCAASGFSFGTYSMSWVRQAPGKGLELVASIDTAGTPYYPDSVKGRFTISRDNAKNSLYLQMNSLRAEDTAVYYCARSYSGYDPYDAFDIWGQGTMVTVSS VL: DIVMTQSPLSLPVTPGEPASISCRSSRSLVHGSGDNYLHWYLQKPGQSPQLLIYDASNRFSGVPDRFSGSGSGTDFTLKISRVEAEDVGVYYCAQTLQIPLTFGGGTKVEIK 5.6

Determine its reported Kd: G04-Lib6-Pl2 (antibody, V domains shown, Tested as an antibody captured by anti-human IgG Fc) VH: EVQLVQSGAEVKKPGASVKVSCKASGYSFTKSGIHWVRQAPGQGLEWMGWINPRTGNINYAQKLQGRGTMTTDPSTSTAYMELRSLRSDDTAVYYCARTHLGSSSSPPGYYYGMDVWGQGTTVTVSS VL: ESALTQPASVSGSPGQSITISCTGTNIGAKAVSWYQQHPGKAPKLMIYAENKRPSGVSNRFSGSKSGNTASLTISGLQAEDEADYYCQAWDNRAILFGGGTKLTVL 1.6

Data origin: patent US20250243271A1
